protocol summary: AUC (0 to tau) in human plasma at 200 mg qd for 4 days
Format: ADME, organism-based
value type: AUC tau at 96 h

>>> experimental_result("CC(=O)N1CCN(c2ccc(OCC3COC(Cn4ccnc4)(c4ccc(Cl)cc4Cl)O3)cc2)CC1 (stereo unspecified) [KETOCONAZOLE]")
"16600 ng·h/mL"
